Source: the Deep4Chem optical property database

# PROCEDURE SUMMARY: solvent given as SMILES
# CONDITION DETAILS: in CC(C)=O
Here, each record is paired with measured emission maximum data.

{"MOLECULE SMILES": "CC1=CC(C)=[N+]2C1=C(c1ccc(N3CCCCC3)cc1)c1c(C)cc(C)n1[B-]2(F)F", "READING UNIT": "nm", "emission maximum": 515}
{"MOLECULE SMILES": "Fc1c(F)c(F)c([B-]2(c3c(F)c(F)c(F)c(F)c3F)Oc3c(ccc4c5c(ccc34)C=[N+](c3ccccc3)[B-](c3c(F)c(F)c(F)c(F)c3F)(c3c(F)c(F)c(F)c(F)c3F)O5)C=[N+]2c2ccccc2)c(F)c1F", "READING UNIT": "nm", "emission maximum": 578}
{"MOLECULE SMILES": "CCC1=C(C)C2=Cc3c(I)c(I)cn3[B-](F)(F)[N+]2=C1C", "READING UNIT": "nm", "emission maximum": 544}
{"MOLECULE SMILES": "COc1cc(N(c2ccc(C=C(C#N)C#N)c(OC)c2)c2ccc(C=C(C#N)C#N)c(OC)c2)ccc1C=C(C#N)C#N", "READING UNIT": "nm", "emission maximum": 557}
